test: endothelial E-selectin upregulation by compounds – imaging, HUVEC, cherry-picked samples, dose response (AID 977605); details: HUVEC E-selectin immunostaining, at 19.5 µM (top of the series), percent of TNF-alpha response over vehicle;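 note: signal is the share of imaged cells scored positive for E-selectin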
Kindly state activation for each of the entries shown.
One number for each entry, in %.

Below, 2 compounds whose answers are already recorded.
INSERT INTO measurements (smiles_structure, observed_value) VALUES
  ('C[C@H](CO)N1C[C@H](C)[C@@H](CN(C)Cc2ccc(C(=O)O)cc2)Oc2ccc(NC(=O)Nc3ccc(F)cc3)cc2CC1=O', 0.279),
  ('Cc1noc(C)c1NC(=O)Nc1cccc2c1O[C@@H](CN(C)Cc1ccc(C(F)(F)F)cc1)[C@H](C)CN([C@@H](C)CO)C2=O', 0.145);

Could you report activation for every entry in the following list?
1. C[C@H](CO)N1C[C@H](C)[C@H](CN(C)Cc2ccc(Oc3ccccc3)cc2)Oc2ccc(NC(=O)CCCCCC(=O)Nc3ccccc3N)cc2CC1=O
2. C[C@H](CO)N1C[C@H](C)[C@H](CN(C)Cc2ccc(Oc3ccccc3)cc2)Oc2c(NS(C)(=O)=O)cccc2C1=O
3. Cc1noc(C)c1NC(=O)N(C)C[C@H]1Oc2ccc(NC(=O)c3ccncc3)cc2C(=O)N([C@H](C)CO)C[C@@H]1C

A.
[0.312, 3.2, -0.129]

Could you report activation for every entry in the following list?
1. C[C@H]1CN([C@@H](C)CO)C(=O)c2cc(N(C)C)ccc2O[C@H]1CN(C)C(=O)Nc1ccc2c(c1)OCO2
2. C[C@H]1CN([C@@H](C)CO)C(=O)c2cc(NC(=O)Cn3cnnn3)ccc2O[C@H]1CN(C)S(=O)(=O)c1ccccc1

A.
1. 2.2
2. -0.003

Could you report activation for every entry in the following list?
1. C[C@@H]1CN([C@@H](C)CO)C(=O)c2cccc(NS(=O)(=O)c3cn(C)cn3)c2O[C@H]1CN(C)Cc1ccncc1
2. C[C@@H]1CN([C@@H](C)CO)C(=O)c2cc(NC(=O)Cc3ccccc3)ccc2O[C@@H]1CN(C)C(=O)Nc1cccc2ccccc12

A.
1: -0.172; 2: -0.101
